Every entry's value here was drawn from the supplement of paper PMC6555819.

# System: RARa homodimer (NR concentration 270 nM)
# MEASUREMENT_DESCRIPTION: PBM binding z-score (relative to random genomic background probes); higher = stronger binding; sequences stand for … in GC…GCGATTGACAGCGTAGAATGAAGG
REPORTED_ENDPOINT: PBM binding z-score
Would you mind answering with just the numeric figure?

RECORD_SEQUENCE: TCGAGTAGGTTAGTCGGGGCGTTCAGCCAACATA
REPORTED_ENDPOINT: PBM binding z-score
ASSAY_VALUE: -0.96
--
RECORD_SEQUENCE: ACTTACGGGTCAACGAGGTTATACCACGCGTATA
REPORTED_ENDPOINT: PBM binding z-score
ASSAY_VALUE: 1.26
--
RECORD_SEQUENCE: TCTTGTAGATCAACAGGAGCTTAAGAAAGATCGA
REPORTED_ENDPOINT: PBM binding z-score
ASSAY_VALUE: -0.604
--
RECORD_SEQUENCE: AGAACGAGGGCAATTAGTTGATAGCACGGGTGGC
REPORTED_ENDPOINT: PBM binding z-score
ASSAY_VALUE: 0.215

Value of measured PBM binding z-score for the entry CCTTACGGGTCACTCCAGGTTAGAGCATCGGAGT : 0.0194

The reported PBM binding z-score of the sequence AGAACGCGGGCACGCTGAGTTGATAGCAGAGTAG was -0.302

// field: PBM binding z-score; key: CGTCTAAGTTCAACTAAGGTAACGTAAAGCACGC ; value = 1.48

Memo: TCTTGTAGATCAATAGAGGTTAATAAAGTGCGCT , reported PBM binding z-score: 0.341

Briefly, PBM binding z-score measured for TCTTGTAGATCAATAGACGTTAAGAAAGTGCGCT : 0.424

The reported value for CCAGACAGGTGAAAGGTAACTTAGTCTGGTACGC in terms of PBM binding z-score is 0.346

Please fill in: PBM binding z-score reported for GCTCGGAGGAGAAGGTCAGAGCTTTGTCCGTAGA = -1

Short answer for CCTCGGAGGACAGAAGGTCAGAGTTGTCCGCTTT : PBM binding z-score was 0.0194

* * *

# System: RXRa homodimer (NR concentration 180 nM)
# MEASUREMENT_DESCRIPTION: PBM binding z-score (relative to random genomic background probes); higher = stronger binding; sequences stand for … in GC…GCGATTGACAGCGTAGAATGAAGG
REPORTED_ENDPOINT: PBM binding z-score
Please reply with the number alone, leaving off any unit.

RECORD_SEQUENCE: CCTTACGGGTCAAGGTTATGGCACGGGTGGTACG
REPORTED_ENDPOINT: PBM binding z-score
ASSAY_VALUE: 5.31

# CTCGAAAGGTAGGTTGAGGTGAGTATACGGATAA with RXRa homodimer (NR concentration 180 nM): PBM binding z-score is 0.223

Hey, RXRa homodimer (NR concentration 180 nM) data for TTACCAAGGTGAGCTGAGGTCGATGATCCAACTC : PBM binding z-score came out at 1.06

Noted PBM binding z-score for ATCGAAAGGTCGAAGGTGATTATACCCACCCGAA , tested on RXRa homodimer (NR concentration 180 nM): 4.77

* * *

# System: RARa homodimer (NR concentration 270 nM)
# MEASUREMENT_DESCRIPTION: PBM binding z-score (relative to random genomic background probes); higher = stronger binding; sequences stand for … in GC…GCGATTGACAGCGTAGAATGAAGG
# binarize PBM binding z-score: threshold 0.7 inclusive, high side true (1), low side false (0)

Some solved entries appear below for comparison.
RECORD_SEQUENCE: GATACAGGGTCAGCTAGAGGCCAGAGGATGGAAA
CLASS: false (0)

RECORD_SEQUENCE: CATACAAGGTCAGCTAGGCCAGAGTAGGGACGGC
CLASS: true (1)

RECORD_SEQUENCE: GCTATTCGTTGAAAGGGCAACCGAATGATTCTCG
CLASS: false (0)

RECORD_SEQUENCE: AGAGACAGGTGATGAAGGTAACTCAGGCTATCAT
CLASS: true (1)

RECORD_SEQUENCE: ATCTCTAGGTAATGTTCAGTGAAAGATCGATAGA
CLASS: true (1)

RECORD_SEQUENCE: CGTCCAAGGTCAAAGGTCAGTGATGAGATGACGG
CLASS: true (1)

RECORD_SEQUENCE: CGAGACAGGTGAAAGGTAACTCAGTCTGGTACGC
CLASS: false (0)

RECORD_SEQUENCE: TCAGACAGGTGAAGGTAAGTCAGGTACGCAGTCG
CLASS: false (0)

(Q) # check: PBM binding z-score of ATCGAAAGGTCGACGAGGTGAGTAGACACCGTTT is greater than or equal to 0.7
(A) true (1)

(Q) Does the sequence GGAACGAGGGCATTCGAGTAGATAGCATGGCGAT have recorded PBM binding z-score that is 0.7 or more?
(A) false (0)

(Q) Tell me whether PBM binding z-score is at least 0.7 here: CCTAGTTGGTCAAGGTGACACACGCTATAGGTAC
(A) true (1)

* * *

# Test system: PPARg DBDmut:RXRa IVT, anti-PPARg (DBD mutation: PPARg1 K132A/R137A, NR concentration 270 nM, RXRa partner concentration 90 nM)
# MEASUREMENT_DESCRIPTION: PBM binding z-score (relative to random genomic background probes); higher = stronger binding; sequences stand for … in GC…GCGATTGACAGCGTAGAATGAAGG
Give Satisfied when the value for PBM binding z-score is at least -0.2. Give Not satisfied when it is less.

Some solved entries appear below for comparison.
RECORD_SEQUENCE: CCTGCTCGGTCATGGTCAGCTAATCTACAGTATG
CLASS: Not satisfied

RECORD_SEQUENCE: TAGCCTAGGTCAGATCGGGCCAGTAAACGCTATA
CLASS: Not satisfied

(Q) // inclusive: PBM binding z-score at least -0.2? input: TCTTGTAGATCAAAGGTTACGAAAGCCGAAGCCT
(A) Satisfied

(Q) Decide: PBM binding z-score of CGTCCAAGGTCAGCAGGTCATTGAAAGCGACGTG >= -0.2?
(A) Satisfied

* * *

# Test system: RARa homodimer (NR concentration 270 nM)
# MEASUREMENT_DESCRIPTION: PBM binding z-score (relative to random genomic background probes); higher = stronger binding; sequences stand for … in GC…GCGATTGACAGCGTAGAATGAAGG
PBM binding z-score by entry:
Hey, just send me the number, nothing else.

RECORD_SEQUENCE: GGAACAAGGGCAAAGTTGATAGCATCTGTCGACG
REPORTED_ENDPOINT: PBM binding z-score
ASSAY_VALUE: 0.248
//
RECORD_SEQUENCE: TCGAGTAGGTTAGTCGGGGCATGCAGCCAACATA
REPORTED_ENDPOINT: PBM binding z-score
ASSAY_VALUE: -0.677
//
RECORD_SEQUENCE: ACTAGCAGGCCAAGGTTCACTCAAGATTAGTCCG
REPORTED_ENDPOINT: PBM binding z-score
ASSAY_VALUE: 0.0605

The recorded PBM binding z-score with RARa homodimer (NR concentration 270 nM) for ACTAGCGGGCCAAGTTTGGGTCACTCAAACAAAG was -1.37

Tested system RARa homodimer (NR concentration 270 nM); PBM binding z-score recorded for GTACCAAGGTGAATAGGTCGATGATGAGTAGGCG was 0.983

GET /values?item= TCAGACAGGTCAAGGTAACTCAGGTACGCAGTCG &system= RARa homodimer (NR concentration 270 nM) returns PBM binding z-score: 0.676

# lookup: CCTATTAGTTGACCATAAGGGCAACCCAAGCTCG on RARa homodimer (NR concentration 270 nM), PBM binding z-score = 1.66

# GCTCGGAGGACAGGGTCAGAGCTTTGTCCGTAGA with RARa homodimer (NR concentration 270 nM): PBM binding z-score is -1.04

Reading of PBM binding z-score for AGAATGAGGTTATTAAGATCAAGGAATTGCGGTC with RARa homodimer (NR concentration 270 nM): 1.15

Fill in: RARa homodimer (NR concentration 270 nM) PBM binding z-score for CGTCCAAGGTAATAGGAGGTCAGTGAAGACAGAT = 1.12

Simply: AGTCAAAGTACAGGACGAGGTAACGTAAAGCACG , RARa homodimer (NR concentration 270 nM), PBM binding z-score = -0.0608

Short answer on RARa homodimer (NR concentration 270 nM) for ACTAGTTGGTCAGCTGAGGTCACACGCAATTCGG , PBM binding z-score: 0.262

Test item GCTGCCAGGTCAACTGATGGTCAGCTAAAGCTCG ; RARa homodimer (NR concentration 270 nM); reported PBM binding z-score was -0.0772
